# Test system: NCI-H1666 (Lung Adenocarcinoma)
# run.description: combination Emax (second highest fraction inhibited in the dose matrix, 72 h); higher = more inhibition; extreme values may be limits of the assay
result.type: combination Emax
Give the figure only, with no unit attached.

q: Fill in: combination Emax of Cc1c2c(nn1C)CSCc1cc(n(C)n1)CSc1cc(c3ccccc3c1)OCCCc1c(C(=O)O)n(C)c3c-2c(Cl)ccc13 [AZD5991] + CC(=O)O[C@H]1C(=O)[C@@]2(C)[C@H]([C@H](OC(=O)c3ccccc3)[C@]3(O)C[C@H](OC(=O)[C@H](O)[C@@H](NC(=O)c4ccccc4)c4ccccc4)C(C)=C1C3(C)C)[C@]1(OC(C)=O)CO[C@@H]1C[C@@H]2O [Paclitaxel] (first compound max 1 µM, 7x7, partner max 3 µM) is ___
a: 0.563

q: Fill in: combination Emax of C[C@@H](c1ccc2nccn2c1)n1nnc2ncc(-c3cnn(C)c3)nc21 [Savolitinib] + CC1(C)CCC(CN2CCN(c3ccc(C(=O)NS(=O)(=O)c4ccc(NCC5CCOCC5)c([N+](=O)[O-])c4)c(Oc4cnc5[nH]ccc5c4)c3)CC2)=C(c2ccc(Cl)cc2)C1 [Venetoclax] (first compound max 1 µM, 7x7, partner max 1 µM) is ___
a: 0.152

q: Fill in: combination Emax of COc1cccc(OCCCN)c1-c1cc(Nc2cnc(C#N)cn2)n[nH]1 [Prexasertib] + CCc1c2c(nc3ccc(O)cc13)-c1cc3c(c(=O)n1C2)COC(=O)[C@]3(O)CC [SN-38] (first compound max 1 µM, 7x7, partner max 0.3 µM) is ___
a: 0.643

----------
Please respond with reported combination Emax for every item in the list.
# Tested on: NCI-H2591 (Mesothelioma)
# run.description: combination Emax (second highest fraction inhibited in the dose matrix, 72 h); higher = more inhibition; extreme values may be limits of the assay
Give the figure only, with no unit attached.

q: Fill in: combination Emax of Cn1cnc2c(F)c(Nc3ccc(Br)cc3Cl)c(C(=O)NOCCO)cc21 [Selumetinib] + C[C@@H]1COCCN1C2=NC(=NC(=C2)C3(CC3)[S@](=N)(=O)C)C4=C5C=CNC5=NC=C4 [AZD6738] (first compound max 10 µM, 7x7, partner max 10 µM) is ___
a: 0.339

q: Fill in: combination Emax of CCc1c2c(nc3ccc(O)cc13)-c1cc3c(c(=O)n1C2)COC(=O)[C@]3(O)CC [SN-38] + CN(C)CCCOc1ccc(-c2ccc3ncc4c(c3c2)n(C2CCOCC2)c(=O)n4C)cn1 [AZD0156] (first compound max 0.3 µM, 7x7, partner max 1 µM) is ___
a: 0.65

q: Fill in: combination Emax of CN(C)CCCOc1ccc(-c2ccc3ncc4c(c3c2)n(C2CCOCC2)c(=O)n4C)cn1 [AZD0156] + CCN(CCO)CCCOc1ccc2c(Nc3cc(CC(=O)Nc4cccc(F)c4)[nH]n3)ncnc2c1 [AZD2811] (first compound max 1 µM, 7x7, partner max 1 µM) is ___
a: 0.112

q: Fill in: combination Emax of C=CCn1c(=O)c2cnc(Nc3ccc(N4CCN(C)CC4)cc3)nc2n1-c1cccc(C(C)(C)O)n1 [AZD1775] + O=C(c1cc(Cc2n[nH]c(=O)c3ccccc23)ccc1F)N1CCN(C(=O)C2CC2)CC1 [Olaparib] (first compound max 1 µM, partner max 10 µM) is ___
a: 0.253

----------
Please respond with reported Bliss excess for every item in the list.
# Test system: COLO-320-HSR (Colorectal Carcinoma);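 further: after 72 h of two-drug dosing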
# run.description: Bliss excess, mean over the matrix (fraction); higher = more synergy

q: Fill in: Bliss excess of N#Cc1cnc(Nc2cc(NC[C@H]3CNCCO3)c(C(F)(F)F)cn2)cn1 [SRA737] + O=c1[nH]cc(F)c(=O)[nH]1 [5-Fluorouracil] (first compound max 10 µM, 7x7, partner max 20 µM) is ___
a: 0.0047

q: Fill in: Bliss excess of CCc1c2c(nc3ccc(O)cc13)-c1cc3c(c(=O)n1C2)COC(=O)[C@]3(O)CC [SN-38] + O=C(c1cc(Cc2n[nH]c(=O)c3ccccc23)ccc1F)N1CCN(C(=O)C2CC2)CC1 [Olaparib] (first compound max 0.3 µM, 7x7, partner max 10 µM) is ___
a: -0.0523

q: Fill in: Bliss excess of O=C(c1cc(Cc2n[nH]c(=O)c3ccccc23)ccc1F)N1CCN(C(=O)C2CC2)CC1 [Olaparib] + COc1nnc2ccc(N3CCC(c4ccc(OCCN5CCN(C)C(=O)[C@H]5C)cc4)CC3)nn12 [AZD5153] (first compound max 10 µM, 7x7, partner max 1 µM) is ___
a: -0.0311

q: Fill in: Bliss excess of CC1(C)CCC(CN2CCN(c3ccc(C(=O)NS(=O)(=O)c4ccc(NCC5CCOCC5)c([N+](=O)[O-])c4)c(Oc4cnc5[nH]ccc5c4)c3)CC2)=C(c2ccc(Cl)cc2)C1 [Venetoclax] + CCN(CCO)CCCOc1ccc2c(Nc3cc(CC(=O)Nc4cccc(F)c4)[nH]n3)ncnc2c1 [AZD2811] (first compound max 1 µM, 7x7, partner max 1 µM) is ___
a: 0.0052

q: Fill in: Bliss excess of N#Cc1cnc(Nc2cc(NC[C@H]3CNCCO3)c(C(F)(F)F)cn2)cn1 [SRA737] + CCc1c2c(nc3ccc(O)cc13)-c1cc3c(c(=O)n1C2)COC(=O)[C@]3(O)CC [SN-38] (first compound max 10 µM, 7x7, partner max 0.3 µM) is ___
a: 0.112

q: Fill in: Bliss excess of Cc1c2c(nn1C)CSCc1cc(n(C)n1)CSc1cc(c3ccccc3c1)OCCCc1c(C(=O)O)n(C)c3c-2c(Cl)ccc13 [AZD5991] + C[C@@H](Nc1cc(F)cc(F)c1)c1cc(C(=O)N(C)C)cc2c(=O)cc(N3CCOCC3)oc12 [AZD8186] (first compound max 1 µM, 7x7, partner max 3 µM) is ___
a: -0.0004

q: Fill in: Bliss excess of N#Cc1cnc(Nc2cc(NC[C@H]3CNCCO3)c(C(F)(F)F)cn2)cn1 [SRA737] + C=CCn1c(=O)c2cnc(Nc3ccc(N4CCN(C)CC4)cc3)nc2n1-c1cccc(C(C)(C)O)n1 [AZD1775] (first compound max 10 µM, partner max 1 µM) is ___
a: 0.116

q: Fill in: Bliss excess of Cc1c2c(nn1C)CSCc1cc(n(C)n1)CSc1cc(c3ccccc3c1)OCCCc1c(C(=O)O)n(C)c3c-2c(Cl)ccc13 [AZD5991] + CC(=O)O[C@H]1C(=O)[C@@]2(C)[C@H]([C@H](OC(=O)c3ccccc3)[C@]3(O)C[C@H](OC(=O)[C@H](O)[C@@H](NC(=O)c4ccccc4)c4ccccc4)C(C)=C1C3(C)C)[C@]1(OC(C)=O)CO[C@@H]1C[C@@H]2O [Paclitaxel] (first compound max 1 µM, 7x7, partner max 3 µM) is ___
a: -0.0443

q: Fill in: Bliss excess of COc1cccc(OCCCN)c1-c1cc(Nc2cnc(C#N)cn2)n[nH]1 [Prexasertib] + C=CCn1c(=O)c2cnc(Nc3ccc(N4CCN(C)CC4)cc3)nc2n1-c1cccc(C(C)(C)O)n1 [AZD1775] (first compound max 1 µM, partner max 1 µM) is ___
a: 0.136

q: Fill in: Bliss excess of C[C@@H](Oc1cc(-c2cnn(C3CCNCC3)c2)cnc1N)c1c(Cl)ccc(F)c1Cl [Crizotinib] + CC1=C(C(=CC=C1)Cl)NC(=O)C2=CN=C(S2)NC3=CC(=NC(=N3)C)N4CCN(CC4)CCO [Dasatinib] (first compound max 10 µM, 7x7, partner max 2 µM) is ___
a: -0.0425

q: Fill in: Bliss excess of Cc1nc(-c2cn3c(n2)-c2ccc(-c4cnn(C(C)(C)C(N)=O)c4)cc2OCC3)n(C(C)C)n1 [Taselisib] + O=C(Nc1ccc2[nH]nc(-c3ccncc3)c2c1)[C@@H]1CCN(CC(=O)N2CCN(c3ccc(-c4ncccn4)cc3)CC2)C1 [SCH772984] (first compound max 10 µM, 7x7, partner max 5 µM) is ___
a: -0.0441

q: Fill in: Bliss excess of CC(=O)c1c(C)c2cnc(Nc3ccc(N4CCNCC4)cn3)nc2n(C2CCCC2)c1=O [Palbociclib] + Cc1c2c(nn1C)CSCc1cc(n(C)n1)CSc1cc(c3ccccc3c1)OCCCc1c(C(=O)O)n(C)c3c-2c(Cl)ccc13 [AZD5991] (first compound max 10 µM, 7x7, partner max 1 µM) is ___
a: -0.0746

q: Fill in: Bliss excess of COc1nnc2ccc(N3CCC(c4ccc(OCCN5CCN(C)C(=O)[C@H]5C)cc4)CC3)nn12 [AZD5153] + Cc1c2c(nn1C)CSCc1cc(n(C)n1)CSc1cc(c3ccccc3c1)OCCCc1c(C(=O)O)n(C)c3c-2c(Cl)ccc13 [AZD5991] (first compound max 1 µM, 7x7, partner max 1 µM) is ___
a: -0.112

q: Fill in: Bliss excess of CC1(C)CCC(CN2CCN(c3ccc(C(=O)NS(=O)(=O)c4ccc(NCC5CCOCC5)c([N+](=O)[O-])c4)c(Oc4cnc5[nH]ccc5c4)c3)CC2)=C(c2ccc(Cl)cc2)C1 [Venetoclax] + CN(C)CCCOc1ccc(-c2ccc3ncc4c(c3c2)n(C2CCOCC2)c(=O)n4C)cn1 [AZD0156] (first compound max 1 µM, 7x7, partner max 1 µM) is ___
a: 0.0114

q: Fill in: Bliss excess of CN(C)CCCOc1ccc(-c2ccc3ncc4c(c3c2)n(C2CCOCC2)c(=O)n4C)cn1 [AZD0156] + O=C(c1cc(Cc2n[nH]c(=O)c3ccccc23)ccc1F)N1CCN(C(=O)C2CC2)CC1 [Olaparib] (first compound max 3 µM, partner max 3 µM) is ___
a: 0.104

The measurements presented in this section are drawn from the supplement of paper PMC11061612.
